# Experiment Description: Selectivity index, ratio of CC50 for human HeLa cells to IC50 for Human rhinovirus 1B infected in human HeLa cells
# Type: toxicity, cell-based
# Test Settings: read-out: Ratio CC50/IC50
Readout Name: selectivity ratio

>>> df
                               smiles_entry  result
0  COc1cc(C[C@H]2COC(=O)[C@@H]2Cc2cc(OC)c(O)c(-c3cc(C[C@H]4C(=O)OC[C@@H]4Cc4ccc(OC)c(OC)c4)cc(OC)c3O)c2)ccc1O   > 1.1
1  COc1cc(C[C@H]2COC(=O)[C@@H]2Cc2ccc(O)c(OC)c2)ccc1O   > 1.2
2  COc1ccc(C[C@H]2COC(=O)[C@@H]2Cc2ccc(Oc3cc(C[C@H]4C(=O)OC[C@@H]4Cc4ccc(OC)c(OC)c4)cc(OC)c3O)c(OC)c2)cc1OC   > 3.8

Could you now look at the following compound, please?
Lookup: Fill in the blank: the reported selectivity ratio of `COc1cc(C[C@H]2C(=O)OC[C@@H]2Cc2cc(OC)c(O)c(-c3cc(C[C@H]4C(=O)OC[C@@H]4Cc4ccc(OC)c(OC)c4)cc(OC)c3O)c2)ccc1O` is ____.
Found: > 1.1

All figures here come from ChEMBL document CHEMBL4330149.
